procedure-details: Drug concentration in spleen of C57BL/6 mouse implanted with mouse B16-F10 cells at 50 mg/kg, ip measured after 2 hrs by UPLC-MS/MS analysis
Type: ADME, organism-based
condition-details: read-out: Ct
attribute-measured: concentration at 2 h (ng/mL)
Report as a plain number; the unit ng/mL is understood.

What does the data say about its concentration at 2 h? Entry: Cc1c(COc2cc(OCc3cccc(C#N)c3)c(CN3CCCCC3C(=O)NCCNC(=O)CCCC[C@@H]3SC[C@@H]4NC(=O)N[C@@H]43)cc2Cl)cccc1-c1ccccc1 (stereo partly specified)
7180

---

procedure-details: Drug concentration in tumor of C57BL/6 mouse implanted with mouse B16-F10 cells at 50 mg/kg, ip measured after 1 hrs by UPLC-MS/MS analysis
Format: ADME, organism-based, Neoplasm
condition-details: read-out: Ct
attribute-measured: concentration at 1 h

What does the data say about its concentration at 1 h? Entry: Cc1c(COc2cc(OCc3cccc(C#N)c3)c(CN3CCCCC3C(=O)NCCNC(=O)CCCC[C@@H]3SC[C@@H]4NC(=O)N[C@@H]43)cc2Cl)cccc1-c1ccccc1 (stereo partly specified)
0.0284 µg/mL

Values from ChEMBL document CHEMBL5346977
